# system tested: T1, NiVM-G
# T1 chain: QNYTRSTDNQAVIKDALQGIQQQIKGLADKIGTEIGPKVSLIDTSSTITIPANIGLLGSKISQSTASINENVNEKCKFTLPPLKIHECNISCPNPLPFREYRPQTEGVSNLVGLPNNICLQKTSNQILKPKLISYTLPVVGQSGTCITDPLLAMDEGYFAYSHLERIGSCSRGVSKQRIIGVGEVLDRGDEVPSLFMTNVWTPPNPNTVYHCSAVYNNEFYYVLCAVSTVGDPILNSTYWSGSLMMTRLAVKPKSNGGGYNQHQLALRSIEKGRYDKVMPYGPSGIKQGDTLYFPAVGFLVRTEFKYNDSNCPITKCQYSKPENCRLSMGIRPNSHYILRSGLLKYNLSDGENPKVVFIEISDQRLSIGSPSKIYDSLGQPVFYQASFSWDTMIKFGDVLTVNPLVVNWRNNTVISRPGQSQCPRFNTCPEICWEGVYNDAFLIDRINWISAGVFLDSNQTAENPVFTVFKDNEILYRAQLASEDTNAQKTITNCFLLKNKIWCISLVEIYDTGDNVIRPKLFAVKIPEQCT
label 1 if EC50 is below 0.3 nM. label 0 if not; exact matches included in label 0.

Use these answered entries as a reference point.
1) HENV-226 (antibody, V domains shown) VH: EERLVQSGGGLAQPGQSLRLSCAGFGFTFTRYEMNWVRQAPGKGLEWIAHISTRGDTISYADSVKGRATISRDDTNNSLDLQMDSLRAEDTAIYFCARDRGSLSTRPPDSYHYYYHGMDVWGQGTTVIVSS VL: EIVLTQSPATLSLSPGERATLSCRASQSIDTYLAWYQQKPGQAPRLLIYDASNRATGIPARFSGSGSGTDFSLTISSLEPDDFAVYYCQQRSNRPPRYTFGLGTRLEIK = label 1
2) HENV-150 (antibody, V domains shown) VH: EVQLLESGGGLVQPGGSLRLSCAASGFTFSSSAMSWVRQTPGKGLEWVSTISGSGANTYYAASVKGRFPISRDNSKNTLFLQMNSLRAEDTAVYYCAKVSTVTFGGHVPRGSYFDYWGQGTQVTVSS VL: SYVLTQPPSVSVAPGQTARIPCGGNNIGSKSVHWYQQKPGQAPVLVVYDENDRPSGIPERFSASKSGNTATLTISRVEAGDEADYYCQVWDSRSDHYVFGTGTKVTVL = label 1
3) HENV-242 (antibody, V domains shown) VH: QVQLVQSGAEVKKPGSSVTVSCKTSGGTFSGYAVSWVRQAPGQGLEWMGRIVPQFNIPNYAQKFQDRVTITADESTGTSYMELSSLRSDDTAVFYCARENIQTIFGVVAMMGGGGYFDSWGQGTLVTVSS VL: DIQMTQSPSSLSASVGDRVTITCQANQDINTYLNWYLQKPGKAPQLLVFDASNLVTGVPSRFSGGGSRTDFTLTIDSLQPEDIGTYYCQQYDHLPRRTFTFGPGTKVDLK = label 0

Input: is_below(EC50, 0.3 nM) for HENV-222 (antibody, V domains shown) VH: QVQLQESGPGLVKPSETLSLTCTVSGGSIDSYYWSWIRQPAGKGLEWIGRIYPSGTTNYNPSLKSRVTMSVDTSKNQFSLKVTSVTAADTAVYYCARMQTGFGSSLFFVPYFDNWGQGTLVTVSS VL: EIVLTQSPATLSLSPGERATLSCRASQSVSSYLAWYQQKPGQAPRLLIYDASNRATGIPARFSGSGSGTDFTLTISSLEPEDFAVYYCQQRGNWPLTFGGGTKVEIK ?
Output: label 0

Input: is_below(EC50, 0.3 nM) for HENV-170 (antibody, V domains shown) VH: EVQLLESGGGLVQPGGSLRLSCAASGFTFSSYTMSWVRQAPGKGLEWVSGISGSGGNTYYAGSVKGRFTISRDNSKNTLYLQMNSLRAEDTAVYYCAKDGYTGQQLMRRGPWWFDPWGQGTLVTVSS VL: SYVLTQPPSVSVAPGQTARITCGGNNIGSKSVHWYQQKPGQAPVLVVYDDSDRPSGIPERFSGSKSGNTATLTISRVEAGDEADYYCQVWDSSSDHVVFGGGTKLTVL ?
Output: label 0
